Target: α1β3 GABAA receptor (β3 subunit; β3-α1 intersubunit site) (Homo sapiens, UniProt P14867+P28472)
Construct: gene GABRB3; human α1-8xHis-FLAG and human β3 GABAA receptor in HEK-T-Rex-293 membranes; human α1β3 in Xenopus oocytes for EC50; with GABAA receptor α1 subunit (GABRA1)
Assay: competitive prevention of KK200/KK123 photolabeling with MS readout; EC50 from oocyte two-electrode voltage clamp (potentiation of GABA currents)
Format: cell-based
pEC50: −log10 of the molar value.
Result type: pEC50

> print(dat)
                                   compound  numeric.readout
1  CC(=O)[C@H]1CC[C@H]2[C@@H]3CC[C@H]4C[C@H](O)CC[C@]4(C)[C@H]3CC[C@]12C [ALLO, 3α-hydroxy-5α-pregnan-20-one]             7.10
